experiment: Retention time of the compound; type: physicochemical
ENDPOINT LABEL: Retention_time (min)

Task item: Dear colleague, I am looking for the recorded Retention_time of the following compound: O=C(NCc1ccc(-c2ccccc2)cc1)n1cccn1
Reply: 3.944

Task item: Dear colleague, I am looking for the recorded Retention_time of the following compound: O=C(N1CCCCC1)n1cccn1
Reply: 3.484

Task item: Dear colleague, I am looking for the recorded Retention_time of the following compound: Cc1cnn(C(=O)N2CCN(C(=O)OC(C)(C)C)CC2)c1
Reply: 3.784

Task item: Dear colleague, I am looking for the recorded Retention_time of the following compound: Cc1ccc(COC(=O)n2cc(C)cn2)cc1
Reply: 4.122

Task item: Dear colleague, I am looking for the recorded Retention_time of the following compound: O=C(OCc1ccc(Oc2ccccc2)cc1)n1cccn1
Reply: 3.989

Task item: Dear colleague, I am looking for the recorded Retention_time of the following compound: O=C(CCCCc1ccccc1)n1cccn1
Reply: 3.977

Task item: Dear colleague, I am looking for the recorded Retention_time of the following compound: COC(=O)c1cnn(C(=O)N2CCN(Cc3ccc4ccccc4c3)CC2)c1
Reply: 3.999
